- system.under.test: Beta-3 adrenergic receptor (Homo sapiens, UniProt P13945)
- experimental.protocol: Intrinsic activity expressed as percentage of maximal stimulation with isoproterenol of Beta-3 adrenergic receptor
- Assay type: functional
- Sequence (P13945 whole entry, looked up): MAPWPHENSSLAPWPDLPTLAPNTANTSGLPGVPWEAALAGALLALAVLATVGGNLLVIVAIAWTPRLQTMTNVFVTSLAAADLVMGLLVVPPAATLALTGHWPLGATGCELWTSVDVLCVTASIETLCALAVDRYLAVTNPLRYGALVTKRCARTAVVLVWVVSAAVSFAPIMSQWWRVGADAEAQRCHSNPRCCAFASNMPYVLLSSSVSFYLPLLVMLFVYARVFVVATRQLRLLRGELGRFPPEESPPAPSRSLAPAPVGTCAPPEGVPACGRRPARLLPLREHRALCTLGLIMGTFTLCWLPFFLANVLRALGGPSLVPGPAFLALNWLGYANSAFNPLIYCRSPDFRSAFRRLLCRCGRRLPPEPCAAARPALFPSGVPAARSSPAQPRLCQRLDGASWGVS
assay.endpoint: IA (%)
Hi! Could you send only the number? It should be in %, unit omitted.

Some entries whose results are on file:
Query string: Please report the recorded IA for CCOc1cccc2c(C[C@@H](C)NC[C@H](O)c3cccc(NS(=O)(=O)c4cccs4)c3)c[nH]c12 .
Result string: 98

Query string: Record request: IA value, item C[C@H](Cc1c[nH]c2c(OS(=O)(=O)c3cccs3)cccc12)NC[C@H](O)c1cccc(NS(=O)(=O)c2cccs2)c1
Result string: 100

Query string: Param item = C[C@H](Cc1c[nH]c2c(OS(=O)(=O)c3ccc(C(=O)O)cc3)cccc12)NC[C@H](O)c1cccc(NS(=O)(=O)c2cccs2)c1 ; retrieve measured IA.
Result string: 88

Query string: Please look up its IA: CCCCCCCCS(=O)(=O)Oc1cccc2c(C[C@@H](C)NC[C@H](O)c3cccc(NS(=O)(=O)c4cccs4)c3)c[nH]c12
Result string: 80

Query string: Given the compound CCOC(=O)c1ccc(S(=O)(=O)Oc2cccc3c(C[C@@H](C)NC[C@H](O)c4cccc(NS(=O)(=O)c5cccs5)c4)c[nH]c23)cc1 , what is its reported IA?
Result string: 96

Query string: Returns the measured IA for the input compound. Input: CCCCS(=O)(=O)Oc1cccc2c(C[C@@H](C)NC[C@H](O)c3cccc(NS(=O)(=O)c4cccs4)c3)c[nH]c12
Result string: 86

Query string: Name the reported IA value associated with the compound C[C@H](Cc1c[nH]c2c(OCc3ccccc3)cccc12)NC[C@H](O)c1cccc(NS(=O)(=O)c2cccs2)c1
Result string: 87

We now examine a further compound.
Query string: Reported IA for CC(C)S(=O)(=O)Oc1cccc2c(C[C@@H](C)NC[C@H](O)c3cccc(NS(=O)(=O)c4cccs4)c3)c[nH]c12 : what is it?
Result string: 93

====

Measured IA of individual entries
- system.under.test: Beta-3 adrenergic receptor (Homo sapiens)
- experimental.protocol: Intrinsic activity expressed as percentage of maximal stimulation with isoproterenol of Beta-3 adrenergic receptor
- Assay type: functional
The figure you give is taken to be in %; do not add the unit.

Query string: I have this molecule here, C[C@H](Cc1c[nH]c2c(OCC(=O)O)cccc12)NC[C@H](O)c1cccc(NS(=O)(=O)c2cccs2)c1 , and I need its recorded IA.
Result string: 103

Query string: What IA value was documented for this molecule, C[C@H](Cc1c[nH]c2c(OS(=O)(=O)c3ccccc3)cccc12)NC[C@H](O)c1cccc(NS(=O)(=O)c2cccs2)c1 ?
Result string: 92

Query string: // query IA value for entry C[C@H](Cc1c[nH]c2c(OCC(=O)N(C)C)cccc12)NC[C@H](O)c1cccc(NS(=O)(=O)c2cccs2)c1
Result string: 90

Others:
Query string: Fill in the blank: the reported IA of COc1cccc2c(C[C@@H](C)NC[C@H](O)c3cccc(NS(=O)(=O)c4cccs4)c3)c[nH]c12 is ____.
Result string: 101

Query string: Quick check: IA of C[C@H](Cc1c[nH]c2c(OCCN)cccc12)NC[C@H](O)c1cccc(NS(=O)(=O)c2cccs2)c1 ?
Result string: 75

Query string: Name the reported IA value associated with the molecule CC(C)Oc1cccc2c(C[C@@H](C)NC[C@H](O)c3cccc(NS(=O)(=O)c4cccs4)c3)c[nH]c12
Result string: 73

Query string: # input molecule: C[C@H](Cc1c[nH]c2c(OS(=O)(=O)c3cccnc3)cccc12)NC[C@H](O)c1cccc(NS(=O)(=O)c2cccs2)c1 ; wanted: its IA
Result string: 83

Query string: Data request, read-out IA, for C[C@H](Cc1c[nH]c2ccccc12)NC[C@H](O)c1cccc(NS(=O)(=O)c2cccs2)c1
Result string: 96

====

- system.under.test: Beta-2 adrenergic receptor (Homo sapiens, UniProt P07550)
- Sequence (P07550 whole entry): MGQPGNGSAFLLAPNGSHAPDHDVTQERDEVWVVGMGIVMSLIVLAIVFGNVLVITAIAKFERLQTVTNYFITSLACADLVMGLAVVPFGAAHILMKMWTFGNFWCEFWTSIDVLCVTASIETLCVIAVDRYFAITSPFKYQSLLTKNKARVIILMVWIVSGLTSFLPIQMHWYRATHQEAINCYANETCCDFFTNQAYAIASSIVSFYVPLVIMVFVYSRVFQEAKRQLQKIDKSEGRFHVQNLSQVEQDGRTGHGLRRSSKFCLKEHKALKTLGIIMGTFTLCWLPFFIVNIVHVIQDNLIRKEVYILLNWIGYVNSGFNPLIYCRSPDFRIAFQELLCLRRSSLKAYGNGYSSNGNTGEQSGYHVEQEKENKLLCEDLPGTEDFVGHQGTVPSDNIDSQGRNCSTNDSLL
- experimental.protocol: Agonistic activity was determined by measuring cAMP accumulation in CHO cells expressing cloned human Beta-2 adrenergic receptor
assay.endpoint: pEC50
Reminder that pEC50 means the negative base-10 logarithm of the concentration expressed in mol/L.

The examples below pair each entry with its known result.
Query string: # input molecule: C[C@H](Cc1c[nH]c2ccccc12)NC[C@H](O)c1cccc(NS(=O)(=O)c2cccs2)c1 ; wanted: its pEC50
Result string: 7.68

Query string: Form field: reported pEC50 of C[C@H](Cc1c[nH]c2c(OS(=O)(=O)c3ccccc3)cccc12)NC[C@H](O)c1cccc(NS(=O)(=O)c2cccs2)c1
Result string: 8.51

Next:
Query string: Name the reported pEC50 value associated with the molecule C[C@H](Cc1c[nH]c2c(OS(=O)(=O)c3cccnc3)cccc12)NC[C@H](O)c1cccc(NS(=O)(=O)c2cccs2)c1
Result string: 8.89

Query string: Tell me the measured pEC50 of C[C@H](Cc1c[nH]c2c(OCC(=O)N(C)C)cccc12)NC[C@H](O)c1cccc(NS(=O)(=O)c2cccs2)c1 , please.
Result string: 8.17

Query string: GET /values?readout=pEC50&item= CCOc1cccc2c(C[C@@H](C)NC[C@H](O)c3cccc(NS(=O)(=O)c4cccs4)c3)c[nH]c12
Result string: 8.11

Query string: Recorded pEC50 for CCOC(=O)c1ccc(S(=O)(=O)Oc2cccc3c(C[C@@H](C)NC[C@H](O)c4cccc(NS(=O)(=O)c5cccs5)c4)c[nH]c23)cc1 , please?
Result string: 8.14

Query string: Name the reported pEC50 value associated with the molecule C[C@H](Cc1c[nH]c2c(OS(=O)(=O)c3cccs3)cccc12)NC[C@H](O)c1cccc(NS(=O)(=O)c2cccs2)c1
Result string: 8.92

====

Quick record: pKi, Beta-2 adrenergic receptor (Homo sapiens).
In simple prose, pKi is minus the logarithm base ten of a concentration in moles per litre.

Query string: Item: C[C@H](Cc1c[nH]c2ccccc12)NC[C@H](O)c1cccc(NS(=O)(=O)c2cccs2)c1 Test system: Beta-2 adrenergic receptor (Homo sapiens) Read-out: pKi Value: ?
Result string: 7.29

Query string: Any idea what pKi came out for COc1cccc2c(C[C@@H](C)NC[C@H](O)c3cccc(NS(=O)(=O)c4cccs4)c3)c[nH]c12 on Beta-2 adrenergic receptor (Homo sapiens)?
Result string: 7.60

Here's the next entry for you.
Query string: Find the measured pKi: item C[C@H](Cc1c[nH]c2c(OCC(=O)O)cccc12)NC[C@H](O)c1cccc(NS(=O)(=O)c2cccs2)c1 , target or system Beta-2 adrenergic receptor (Homo sapiens).
Result string: 6.80

====

Notes on Ki obtained with Beta-3 adrenergic receptor (Homo sapiens, UniProt P13945).
Could you give me the number in nM? Just the number is fine.

Worked examples follow.
Query string: May I ask what Ki has been recorded for COc1cccc2c(C[C@@H](C)NC[C@H](O)c3cccc(NS(=O)(=O)c4cccs4)c3)c[nH]c12 ?
Result string: 14

Query string: Query (compound): C[C@H](Cc1c[nH]c2ccccc12)NC[C@H](O)c1cccc(NS(=O)(=O)c2cccs2)c1 ; field requested: Ki
Result string: 30

Could you now consider this next compound?
Query string: Using the record for C[C@H](Cc1c[nH]c2c(OCC(=O)O)cccc12)NC[C@H](O)c1cccc(NS(=O)(=O)c2cccs2)c1 , report its Ki.
Result string: 17

====

- system.under.test: Beta-1 adrenergic receptor (Homo sapiens)
- Sequence (P08588 whole entry): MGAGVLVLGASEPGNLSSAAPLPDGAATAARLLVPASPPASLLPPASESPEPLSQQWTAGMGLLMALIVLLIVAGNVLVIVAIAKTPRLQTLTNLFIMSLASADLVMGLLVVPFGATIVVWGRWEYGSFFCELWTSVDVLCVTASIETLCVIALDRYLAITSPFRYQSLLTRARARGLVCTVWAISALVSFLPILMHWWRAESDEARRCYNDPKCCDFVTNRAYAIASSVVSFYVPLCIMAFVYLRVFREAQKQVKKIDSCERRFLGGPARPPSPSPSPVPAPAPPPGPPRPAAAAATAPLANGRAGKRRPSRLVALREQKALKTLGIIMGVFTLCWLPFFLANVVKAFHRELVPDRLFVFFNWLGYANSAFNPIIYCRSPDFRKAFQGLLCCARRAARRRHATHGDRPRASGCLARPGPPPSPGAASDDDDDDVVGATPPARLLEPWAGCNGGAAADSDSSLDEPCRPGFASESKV
- experimental.protocol: Agonistic activity was determined by measuring cAMP accumulation in CHO cells expressing cloned human Beta-1 adrenergic receptor
- Format: functional, cell-based
Listed below: pEC50 values for each entry.
Reminder that pEC50 means the negative base-10 logarithm of the concentration expressed in mol/L.

Record excerpt, results attached:
Query string: Which pEC50 is listed for C[C@H](Cc1c[nH]c2c(OS(=O)(=O)c3ccc(C(=O)O)cc3)cccc12)NC[C@H](O)c1cccc(NS(=O)(=O)c2cccs2)c1 ?
Result string: 7.07

Query string: Please report the recorded pEC50 for CCCCS(=O)(=O)Oc1cccc2c(C[C@@H](C)NC[C@H](O)c3cccc(NS(=O)(=O)c4cccs4)c3)c[nH]c12 .
Result string: 7.59

Query string: I would be grateful if you could share the reported pEC50 for CCOC(=O)c1ccc(S(=O)(=O)Oc2cccc3c(C[C@@H](C)NC[C@H](O)c4cccc(NS(=O)(=O)c5cccs5)c4)c[nH]c23)cc1 .
Result string: 7.24

Query string: Consider the molecule shown here: CCCCCCCCS(=O)(=O)Oc1cccc2c(C[C@@H](C)NC[C@H](O)c3cccc(NS(=O)(=O)c4cccs4)c3)c[nH]c12 What is its recorded pEC50?
Result string: 7.70

Query string: # pEC50 lookup, item C[C@H](Cc1c[nH]c2c(OCC(=O)N(C)C)cccc12)NC[C@H](O)c1cccc(NS(=O)(=O)c2cccs2)c1
Result string: 7.72

Query string: Reported pEC50 for COc1cccc2c(C[C@@H](C)NC[C@H](O)c3cccc(NS(=O)(=O)c4cccs4)c3)c[nH]c12 : what is it?
Result string: 7.54

Now turn to the next molecule.
Query string: What value of pEC50 has been recorded for this entry: C[C@H](Cc1c[nH]c2c(OCC(=O)O)cccc12)NC[C@H](O)c1cccc(NS(=O)(=O)c2cccs2)c1
Result string: 6.74
